- Experimental target: CYP450 2C19 (Homo sapiens)
- Sequence (P33261 whole entry): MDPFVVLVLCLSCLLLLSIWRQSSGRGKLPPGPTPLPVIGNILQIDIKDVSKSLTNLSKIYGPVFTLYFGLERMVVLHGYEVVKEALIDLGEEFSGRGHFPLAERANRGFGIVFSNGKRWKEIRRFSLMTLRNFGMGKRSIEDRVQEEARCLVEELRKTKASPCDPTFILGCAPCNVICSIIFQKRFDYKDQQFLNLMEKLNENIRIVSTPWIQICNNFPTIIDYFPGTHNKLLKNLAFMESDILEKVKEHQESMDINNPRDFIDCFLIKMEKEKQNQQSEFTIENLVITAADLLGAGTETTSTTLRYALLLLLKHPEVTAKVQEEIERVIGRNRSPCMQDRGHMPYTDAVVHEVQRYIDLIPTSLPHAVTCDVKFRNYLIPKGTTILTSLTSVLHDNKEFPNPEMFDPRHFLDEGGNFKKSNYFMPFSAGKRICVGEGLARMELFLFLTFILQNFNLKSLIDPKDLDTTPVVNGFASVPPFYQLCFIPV
Measured quantity: IC50

Inquiry: State recorded IC50 with CYP450 2C19 (Homo sapiens), entry CS(=O)(=O)N1CCN(Cc2cc3nc(-c4cccc5[nH]ncc45)nc(N4CCOCC4)c3s2)CC1 [compound of the invention] , no comment.
Reply text: ≥ 5 µM

---

- Experimental target: CYP450 2D6 (Homo sapiens, UniProt P10635)
- Sequence (P10635 whole entry): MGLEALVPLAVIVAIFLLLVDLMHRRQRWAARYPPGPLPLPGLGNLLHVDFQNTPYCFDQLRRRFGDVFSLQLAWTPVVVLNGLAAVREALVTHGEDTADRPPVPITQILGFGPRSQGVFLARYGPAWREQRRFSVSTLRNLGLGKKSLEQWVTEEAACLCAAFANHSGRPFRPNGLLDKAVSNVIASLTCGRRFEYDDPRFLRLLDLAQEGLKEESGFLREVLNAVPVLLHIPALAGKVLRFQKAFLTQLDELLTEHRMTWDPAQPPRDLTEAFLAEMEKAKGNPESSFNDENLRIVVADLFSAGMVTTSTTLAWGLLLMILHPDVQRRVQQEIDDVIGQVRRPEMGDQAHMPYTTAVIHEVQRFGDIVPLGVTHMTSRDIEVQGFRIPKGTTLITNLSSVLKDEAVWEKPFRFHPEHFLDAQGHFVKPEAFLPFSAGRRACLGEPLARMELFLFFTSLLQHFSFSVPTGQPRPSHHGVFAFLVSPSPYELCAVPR
- Assay explanation: Cytochrome P450 inhibition
- Format: in vitro ADME
- Conditions: top concentration 100 uM
pIC50: −log10 of the molar value.
Measured quantity: pIC50

Inquiry: Tell us which pIC50 value is on record for CS(=O)(=O)N1CCN(Cc2cc3nc(-c4cccc5[nH]ncc45)nc(N4CCOCC4)c3s2)CC1 [compound of the invention]
Reply text: ≤ 5.30

---

- Assay explanation: Aqueous solubility at physiological pH
- Assay type: physicochemical
- Conditions: aqueous medium at physiological pH, pH 7.4, aqueous buffer
Measured quantity: solubility

Inquiry: Tell us which solubility value is on record for "CS(=O)(=O)N1CCN(Cc2cc3nc(-c4cccc5[nH]ncc45)nc(N4CCOCC4)c3s2)CC1"
Reply text: > 100 µM

---

- Experimental target: UniProt P11712
- Sequence (P11712 whole entry): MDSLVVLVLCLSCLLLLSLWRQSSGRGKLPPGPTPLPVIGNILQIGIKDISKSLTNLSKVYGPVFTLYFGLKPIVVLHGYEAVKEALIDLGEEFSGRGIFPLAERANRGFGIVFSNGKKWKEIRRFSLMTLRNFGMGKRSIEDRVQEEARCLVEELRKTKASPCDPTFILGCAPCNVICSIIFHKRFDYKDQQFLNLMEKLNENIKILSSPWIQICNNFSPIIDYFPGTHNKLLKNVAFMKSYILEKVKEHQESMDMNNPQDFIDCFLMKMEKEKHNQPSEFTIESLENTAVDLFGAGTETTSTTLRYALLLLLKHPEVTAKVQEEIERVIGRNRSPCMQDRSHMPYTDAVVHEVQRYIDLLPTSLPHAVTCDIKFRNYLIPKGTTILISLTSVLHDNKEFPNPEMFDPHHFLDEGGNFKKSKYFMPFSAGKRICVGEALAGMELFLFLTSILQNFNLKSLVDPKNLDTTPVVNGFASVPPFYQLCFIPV
pIC50: −log10 of the molar value.
Measured quantity: pIC50

Inquiry: Tell us which pIC50 value is on record for "CS(=O)(=O)N1CCN(Cc2cc3nc(-c4cccc5[nH]ncc45)nc(N4CCOCC4)c3s2)CC1"
Reply text: ≤ 5.30

---

- System: range of cell lines
- Assay explanation: Cellular proliferation inhibition (Alamar Blue)
- Type: cell-based
- Conditions: 96 h; 4 days incubation, range of cell lines utilized
pEC50: −log10 of the molar value.
Measured quantity: pEC50

Inquiry: Tell us which pEC50 value is on record for CS(=O)(=O)N1CCN(Cc2cc3nc(-c4cccc5[nH]ncc45)nc(N4CCOCC4)c3s2)CC1 [compound of the invention]
Reply text: ≥ 4.30

---

- Experimental target: CYP450 1A2 (Homo sapiens, UniProt P05177)
- Sequence (P05177 whole entry): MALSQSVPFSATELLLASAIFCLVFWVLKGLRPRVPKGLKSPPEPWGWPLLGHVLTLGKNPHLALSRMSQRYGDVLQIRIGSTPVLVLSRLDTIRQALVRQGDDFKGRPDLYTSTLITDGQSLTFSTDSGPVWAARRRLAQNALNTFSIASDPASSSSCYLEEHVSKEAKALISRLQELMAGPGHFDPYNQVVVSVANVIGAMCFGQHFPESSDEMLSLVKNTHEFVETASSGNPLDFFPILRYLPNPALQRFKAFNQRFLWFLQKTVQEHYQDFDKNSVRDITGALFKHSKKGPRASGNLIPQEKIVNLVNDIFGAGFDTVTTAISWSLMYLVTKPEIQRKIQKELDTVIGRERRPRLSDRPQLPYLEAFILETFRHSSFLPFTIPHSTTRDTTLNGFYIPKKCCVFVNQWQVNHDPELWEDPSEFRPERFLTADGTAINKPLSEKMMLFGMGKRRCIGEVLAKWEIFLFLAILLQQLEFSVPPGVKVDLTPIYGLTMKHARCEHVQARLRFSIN
Measured quantity: IC50

Inquiry: State recorded IC50 with CYP450 1A2 (Homo sapiens, UniProt P05177), entry "CS(=O)(=O)N1CCN(Cc2cc3nc(-c4cccc5[nH]ncc45)nc(N4CCOCC4)c3s2)CC1" , no comment.
Reply text: ≥ 5 µM

---

- Assay explanation: in vitro
- Conditions: human, Caco-2
Measured quantity: Papp

Inquiry: Tell us which Papp value is on record for "CS(=O)(=O)N1CCN(Cc2cc3nc(-c4cccc5[nH]ncc45)nc(N4CCOCC4)c3s2)CC1"
Reply text: ≥ 1 ×10⁻⁶ cm/s

The values you see were collected from patent US8987260B2.
